Hey, just so you know, these numbers are from patent US20030068675.

- system-name: ZFP SBS#368 (synthetic)
- Sequence (chain, as listed by the source): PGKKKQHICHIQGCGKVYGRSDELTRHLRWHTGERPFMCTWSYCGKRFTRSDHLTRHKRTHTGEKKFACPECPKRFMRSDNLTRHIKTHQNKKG
- assay-info: EMSA
- experimental-setup: tags: MBP fusion
measured-attribute: Kd (nM)
Return type: number; implicit unit nM.

**Query** // Kd lookup, key: GAGGGGGCG (dsDNA) DNA 1: GAGGGGGCG DNA 2: CGCCCCCTC
**Result** 3.5
